- Test system: SNB-75 CNS
- PROTOCOL DETAILS: NCI tumour cell line growth inhibition, 48 h
Reported TGI values for the following molecules.

As a guide, the following entries are already answered.
{"MOLECULE": "CC(C)Cc1ccc(C(C)/C=C2\\CCC(CN3CCOCC3)C2=O)cc1 (configuration not stated)", "TGI": "22.1 µM"}
{"MOLECULE": "Clc1cccc(Cn2cc(Cc3cn(Cc4cccc(Cl)c4)c4ccccc34)c3ccccc32)c1", "TGI": "> 100 µM"}
{"MOLECULE": "COc1ccc(NC(=O)CSc2nnc(Cc3ccccc3)o2)cc1", "TGI": "> 100 µM"}
{"MOLECULE": "NC(=O)ON=C1CCN(Cc2ccccc2)CC1", "TGI": "> 100 µM"}
{"MOLECULE": "CC(=O)O[C@@]12[C@@H]3O[C@@]4(O)C[C@]5(C)[C@H]6C[C@@](C(C)C)(O[C@H]5c5ccoc5)O[C@H]1[C@]6(C4)O[C@]2(O)C(C)=CC3(C)C", "TGI": "> 100 µM"}
{"MOLECULE": "CC(=O)N(/N=C\\c1ccc([N+](=O)[O-])cc1)c1ccccc1", "TGI": "> 100 µM"}

In the following, a different molecule is considered.
Requested read-out: TGI. Entry: `Cc1cc(NC(=O)NC(=O)c2ccccc2[N+](=O)[O-])ccc1Oc1ncc(Cl)cn1`
1.59 µM

----------
- System: A549 NSCLC
- PROTOCOL DETAILS: NCI tumour cell line growth inhibition, 48 h
PARAMETER MEASURED: TGI

As a guide, the following entries are already answered.
{"COMPOUND": "c1ccc2c(c1)nnn1c3cnccc3nc21", "TGI": "> 100 µM"}
{"COMPOUND": "COC(=N)C(C)C", "TGI": "> 100 µM"}
{"COMPOUND": "Cc1cc(N2CCOCC2)nc(N(CCNc2ccnc3cc(Cl)ccc23)Cc2ccco2)n1", "TGI": "39.1 µM"}
{"COMPOUND": "COc1cc(C2=Nc3c/c(=C\\c4c(O)[nH]c5ccc(Cl)cc45)ccc3=N2)cc(OC)c1OC", "TGI": "10.7 µM"}
{"COMPOUND": "OCC1C(O)C(O)[C@@H]2SCCN12 (stereo partly specified)", "TGI": "> 100 µM"}

Give recorded TGI with A549 NSCLC for the following compound: `C[C@H](Nc1ccc(C#N)n(C)c1=O)c1cc2cc(Cl)ccc2[nH]c1=O`
> 100 µM

Give recorded TGI with A549 NSCLC for the following compound: `O=C(O)c1cnccc1-c1cc(=O)[nH]n1-c1ccccc1`
> 100 µM

Give recorded TGI with A549 NSCLC for the following compound: `CC(C)[C@@H]1NC(=O)[C@]2(C)CSC(=N2)c2csc(n2)CNC(=O)C[C@@H](/C=C/CCS)OC1=O`
20.9 µM

Give recorded TGI with A549 NSCLC for the following compound: `O=C(Nc1cccnc1)c1cccs1`
> 100 µM

Give recorded TGI with A549 NSCLC for the following compound: `COc1ccc(NC(=O)CSc2nnc(Cc3ccccc3)o2)cc1`
> 100 µM

Give recorded TGI with A549 NSCLC for the following compound: `Nc1ccc(-c2nc3cc(F)ccc3s2)cc1Br`
> 100 µM

----------
- System: M14 melanoma
- PROTOCOL DETAILS: NCI tumour cell line growth inhibition, 48 h; in the data active = GI50 below about 0.43 µM; inactive = the rest
The reply should be one of these categories: T for active, F for inactive

Check out these entries, answers already filled in.
{"COMPOUND": "CCS(=O)(=O)c1ccc(OC)c(Nc2ncc(-c3cccc(-c4ccccc4F)c3)o2)c1", "GROUP LABEL": "F"}
{"COMPOUND": "COc1cc(-c2nn(C)nc2-c2cc3ccccc3s2)cc(OC)c1OC", "GROUP LABEL": "T"}
{"COMPOUND": "O=C1OCC2=C1C(c1cccc([N+](=O)[O-])c1)c1cc3c(cc1N2CCO)CCC3 (centres undefined)", "GROUP LABEL": "T"}
{"COMPOUND": "COc1cc(C2=Nc3c/c(=C\\c4c(O)[nH]c5ccc(Cl)cc45)ccc3=N2)cc(OC)c1OC", "GROUP LABEL": "F"}

Field: outcome | Entry: `Cc1ccccc1NC(=O)N/C(N)=N/c1nc2ccccc2s1`
T

Field: outcome | Entry: COC(=O)C1=C2C3=C(C(=O)c4ccccc4C3=O)N(Cc3ccccc3)C2(OC(C)=O)C=CC1=O (centres undefined)
F

Field: outcome | Entry: `O=C(/C=C/c1ccccc1Cl)c1ccc(O)cc1`
F

Field: outcome | Entry: `O=C(Nc1cccc(-n2cc(-c3ccncc3)c(-c3cc(O)cc(Cl)c3)n2)c1)Nc1ccc(Cl)c(Cl)c1`
F

----------
Reported TGI values for the following compounds.
- System: A549 NSCLC
- PROTOCOL DETAILS: NCI tumour cell line growth inhibition, 48 h

As a guide, the following entries are already answered.
{"COMPOUND": "CNC(=O)c1cc(Oc2ccc3nc(NC(=O)c4cc(C(F)(F)F)cc(C(F)(F)F)c4)sc3c2)ccn1", "PARAMETER MEASURED": "TGI", "ASSAY RESULT": "14.6 µM"}
{"COMPOUND": "NC(=S)SC1=NNC2(C(=O)N1)c1ccccc1-c1ccccc12", "PARAMETER MEASURED": "TGI", "ASSAY RESULT": "> 10 µM"}

Requested read-out: TGI. Entry: `S=C1CNC(=S)CN1`
> 100 µM

Requested read-out: TGI. Entry: CC1=C(C(=O)OCCc2ccc([N+](=O)[O-])cc2)C(c2ccccc2C(F)(F)F)C(C(=O)OC(C)C)=C(C)N1 (centres undefined)
> 100 µM

----------
- Tested on: TK-10 renal
- PROTOCOL DETAILS: NCI tumour cell line growth inhibition, 48 h
Reported TGI values for the following molecules.

{"MOLECULE": "Nc1ccccc1C#Cc1ccccc1C#Cc1ccccc1N", "TGI": "20 µM"}
{"MOLECULE": "COc1ccc(S(=O)(=O)Nc2cc(/C=C\\c3cc(OC)c(OC)c(OC)c3)cc(OC)c2OC)cc1OC", "TGI": "> 100 µM"}
{"MOLECULE": "COc1cccc(/C=N/[N-]C(N)=O)c1[O-].[Cu+2].[OH3+].c1cnc2c(c1)ccc1cccnc12", "TGI": "30.4 µM"}

Requested read-out: TGI. Entry: `NCCCCN`
> 100 µM

Requested read-out: TGI. Entry: CCC(C#N)N(Cc1ccc(CN(C(=O)c2ccccc2)C(C#N)CC)cc1)C(=O)c1ccccc1 (configuration not stated)
74.4 µM

Requested read-out: TGI. Entry: CCOC(=O)C(=CNC(Cc1c[nH]c2ccccc12)C(=O)OC)C(=O)OCC (configuration not stated)
> 100 µM

Requested read-out: TGI. Entry: `NNC(=O)CC(=O)Nc1ccc(C(=O)O)cc1`
> 100 µM

Requested read-out: TGI. Entry: `O=c1oc2ccccc2c(-c2ccc(O)cc2)c1Oc1ccc(Cl)cc1`
62.1 µM

Requested read-out: TGI. Entry: `Cc1ccc2c(=O)c(-c3nnsn3)c[nH]c2n1`
> 100 µM

Requested read-out: TGI. Entry: `O=C(CSc1nc2ccc(Cl)cc2c(=O)n1-c1ccccc1)N=Nc1c(O)[nH]c2ccc(F)cc12`
15.5 µM

Requested read-out: TGI. Entry: `CSc1c(C#N)c(O)n(-c2ccc(Cl)cc2)c(=O)c1C#N`
> 100 µM

Requested read-out: TGI. Entry: COC(=O)C1=C(O)C(C(=O)OC)[C@]2(O)[C@H](C(=O)OC)[C@H]1C[C@@H](c1ccccc1OC)[C@H]2C(=O)OC (some centres not stated)
> 54.7 µM

Requested read-out: TGI. Entry: COC(OC)C1(c2ccccc2)Oc2ccccc2C1=O (configuration not stated)
> 100 µM

Requested read-out: TGI. Entry: `Nc1nc(N)nc(-c2cnc3ccccc3c2)n1`
> 100 µM

Requested read-out: TGI. Entry: `C#CCn1c(=O)c(C)cn(/C(=C/C(=O)OCC)C(=O)OCC)c1=O`
4.29 µM

Requested read-out: TGI. Entry: COC1OC(COCc2ccc(Cl)cc2)C(OCc2ccc(Cl)cc2)C1O (configuration not stated)
67.4 µM

Requested read-out: TGI. Entry: Cc1ccc(NC(=O)C2C(=O)C(=O)N(c3ccc(C)cc3)C2=O)cc1 (configuration not stated)
> 100 µM

Requested read-out: TGI. Entry: `O=C(CN1CCOCC1)c1ccc2[nH]c(=O)oc2c1`
> 100 µM

Requested read-out: TGI. Entry: `Cc1cc(NC(=O)NC(=O)c2ccccc2[N+](=O)[O-])ccc1Oc1ncc(Cl)cn1`
> 65.2 µM

Requested read-out: TGI. Entry: CCOC(=O)CC(=O)N(c1ccc(OC)cc1)C(C(=O)OC)c1ccccc1 (configuration not stated)
> 100 µM

Requested read-out: TGI. Entry: `CCOP(=O)(OCC)/C(=C/c1ccccc1)CC(C)=O`
> 100 µM

Requested read-out: TGI. Entry: CCOC(=O)CCC(NC(=O)N1CCN(c2c(C)nc(C)[nH]c2=O)CC1)C(=O)OCC (configuration not stated)
> 100 µM

meta.source: PubChem BioAssay (NCI)
